# targetEntity: F508delCFTR (Homo sapiens, UniProt P13569, DEL508-508)
# Construct: expressed in transfected cells; host or cells: CFBE41o- human lung derived epithelial cells (CFBE41o-F508delCFTR-HRP), doxycycline-inducible
# Sequence (P13569 with tags, fused parts or gaps DEL508-508): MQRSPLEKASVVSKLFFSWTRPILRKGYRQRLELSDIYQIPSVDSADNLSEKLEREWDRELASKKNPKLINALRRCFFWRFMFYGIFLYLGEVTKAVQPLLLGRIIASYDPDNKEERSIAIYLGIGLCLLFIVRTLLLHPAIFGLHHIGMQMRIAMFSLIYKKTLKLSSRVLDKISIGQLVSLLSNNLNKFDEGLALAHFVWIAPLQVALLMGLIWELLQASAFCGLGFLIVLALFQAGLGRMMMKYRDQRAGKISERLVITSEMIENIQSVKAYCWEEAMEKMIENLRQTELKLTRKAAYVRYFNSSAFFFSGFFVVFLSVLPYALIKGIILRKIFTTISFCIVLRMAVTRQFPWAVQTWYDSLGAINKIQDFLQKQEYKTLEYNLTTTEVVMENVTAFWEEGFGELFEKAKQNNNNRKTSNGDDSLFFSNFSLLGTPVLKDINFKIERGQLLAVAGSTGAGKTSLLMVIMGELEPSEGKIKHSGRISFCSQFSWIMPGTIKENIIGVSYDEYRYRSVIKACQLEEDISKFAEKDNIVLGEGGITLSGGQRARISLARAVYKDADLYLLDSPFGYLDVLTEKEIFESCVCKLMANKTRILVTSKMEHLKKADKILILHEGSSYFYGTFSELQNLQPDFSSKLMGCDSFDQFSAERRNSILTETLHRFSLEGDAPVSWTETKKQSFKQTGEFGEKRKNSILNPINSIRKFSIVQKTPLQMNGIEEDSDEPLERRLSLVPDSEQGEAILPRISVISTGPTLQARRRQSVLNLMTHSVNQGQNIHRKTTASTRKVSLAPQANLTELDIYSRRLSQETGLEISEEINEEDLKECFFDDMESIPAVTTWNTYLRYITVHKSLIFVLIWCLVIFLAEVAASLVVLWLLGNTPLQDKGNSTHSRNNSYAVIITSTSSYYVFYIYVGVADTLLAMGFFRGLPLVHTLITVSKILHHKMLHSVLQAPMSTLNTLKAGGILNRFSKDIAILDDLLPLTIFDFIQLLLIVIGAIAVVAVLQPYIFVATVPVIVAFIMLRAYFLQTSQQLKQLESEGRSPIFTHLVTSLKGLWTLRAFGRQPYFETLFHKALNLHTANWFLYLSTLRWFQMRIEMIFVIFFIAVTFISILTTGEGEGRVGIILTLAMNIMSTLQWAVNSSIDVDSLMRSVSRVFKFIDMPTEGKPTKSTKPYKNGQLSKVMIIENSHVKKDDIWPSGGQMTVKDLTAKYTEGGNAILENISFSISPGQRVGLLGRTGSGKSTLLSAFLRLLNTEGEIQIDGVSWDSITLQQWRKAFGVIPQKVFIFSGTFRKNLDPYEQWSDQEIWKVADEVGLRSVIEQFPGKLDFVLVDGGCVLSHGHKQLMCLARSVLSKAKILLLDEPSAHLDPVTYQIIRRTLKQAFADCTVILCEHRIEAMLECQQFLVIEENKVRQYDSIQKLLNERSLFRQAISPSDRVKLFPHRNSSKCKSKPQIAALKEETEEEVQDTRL
# measurementDescription: Cell Surface Expression-Horse Radish Peroxidase (CSE-HRP) Assay;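 for Maximum % activity (without co-corrector): % of on-plate positive control chromenyl benzoic acid corrector at 2 or 3 µM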
# Format: cell-based
# experimentalParameters: test compound without co-corrector; maximum at any tested concentration; read-out: Maximum % activity (without co-corrector)
# Protocol: A cellular assay for measuring the F508delCFTR cell surface expression after correction with test compounds either without or with a co-corrector (2 μM of 3-[(2R,4R)-4-({[1-(2,2-difluoro-1,3-benzodioxol-5-yl)cyclopropyl]carbonyl}amino)-7-methoxy-3,4-dihydro-2H-chromen-2-yl]benzoic acid), was developed in human lung derived epithelial cell line (CFBE4lo−) (Veit G et al, (2012) Mol Biol Cell. 23(21): 4188-4202). […] The raw counts from the experiment were analyzed using Accelrys® Assay Explorer v3.3. […]
The following compounds are listed with their measured Emax values.
metric: Emax

COc1nc(N(C)C)ccc1C1(C(=O)NS(=O)(=O)c2cccc3ncccc23)CC1	> 150%
Cc1cnc(OCC2CC2)c(C2(C(=O)NS(=O)(=O)c3cccc4[nH]ccc34)CC2)c1	> 150%
CC(C)Oc1cnc(C2CCC2)cc1C1(C(=O)NS(=O)(=O)c2cccc3c2CCCN3)CC1	> 150%
COc1cc(C2(C(=O)NS(=O)(=O)c3cccc4[nH]ccc34)CC2)c(OCC2CC2)cn1	> 150%
O=C(NS(=O)(=O)c1cccc2ncccc12)C1(c2ccc(C(F)(F)F)nc2C2CCC2)CC1	> 150%
CCOc1ncc(CC)cc1C1(C(=O)NS(=O)(=O)c2cccc3nc(C)ccc23)CC1	> 150%
CCc1cnc(N2CCOCC2)c(C2(C(=O)NS(=O)(=O)c3cccc4ncccc34)CC2)c1	50 to 150%
Cc1ccc2c(S(=O)(=O)NC(=O)C3(c4cc(C5CCC5)cnc4N4CCN(C)CC4)CC3)cccc2n1	< 50%

* * *

# targetEntity: F508delCFTR (Homo sapiens, UniProt P13569, DEL508-508)
# Construct: expressed in transfected cells; host or cells: CFBE41o- human lung derived epithelial cells (CFBE41o-F508delCFTR-HRP), doxycycline-inducible
# measurementDescription: Cell Surface Expression-Horse Radish Peroxidase (CSE-HRP) Assay
# Type: cell-based
# experimentalParameters: test compound alone, without co-corrector; read-out: EC50 (without co-corrector)
pEC50: −log10 of the molar value.
metric: pEC50

Cc1ccc(OC(F)F)c(C2(C(=O)NS(=O)(=O)c3cccc4ncccc34)CC2)c1 [Example I-100]	> 5.52
COc1ccc(C(C)C)cc1C1(C(=O)NS(=O)(=O)c2cccc3nc(C)ccc23)CC1 [Example I-71]	> 5.52
COc1ccc(OC)c(C2(C(=O)NS(=O)(=O)c3cccc4ncccc34)CC2)c1 [Example I-29]	> 5.52
COc1ccc(C2(C)COC2)cc1C1(C(=O)NS(=O)(=O)c2cccc3ncccc23)CC1 [II-89]	5.00 to 5.52
CCc1ccc(O[C@@H]2CCOC2)c(C2(C(=O)NS(=O)(=O)c3cccc4ncccc34)CC2)c1 [Example I-118]	> 5.52
COc1ccccc1C1(C(=O)NS(=O)(=O)c2cccc3ncccc23)CCC1 [II-6]	5.00 to 5.52
COc1ccc(C2(OC)CCC2)cc1C1(C(=O)NS(=O)(=O)c2cccc3ncccc23)CC1 [Example I-88]	5.00 to 5.52
COC(=O)c1ccc(Cl)cc1S(=O)(=O)NC(=O)C1(c2ccc(Cl)cc2Cl)CC1 [Example III-66]	< 5.00
CCOc1ccc(C)cc1C1(C(=O)NS(=O)(=O)c2cccc3[nH]c(C)cc23)CC1 [Example I-91]	> 5.52
O=C(CCc1ccccc1)N1CCC(S(=O)(=O)NC(=O)C2(c3ccc(Cl)cc3Cl)CC2)CC1 [Example III-79]	< 5.00
Cc1ccc(OC(C)C)c(C2(C(=O)NS(=O)(=O)c3cccc4[nH]ccc34)CC2)c1 [II-79]	> 5.52
COc1ccc(C(C)C)cc1C1(C(=O)NS(=O)(=O)c2cccc3c2CCCN3)CCC1 [II-20]	5.00 to 5.52
CCCc1nc(C(F)(F)F)ccc1C1(C(=O)NS(=O)(=O)c2cccc3c2CCCN3)CC1 [Example GI-8]	> 5.52
O=C(NS(=O)(=O)Cc1ccccc1)C1(c2ccc(F)cc2)CC1 [Example III-112]	< 5.00
CCc1ccc(O[C@H](C)COC)c(C2(C(=O)NS(=O)(=O)c3cccc4nc(C)ccc34)CC2)c1 [Example I-112]	> 5.52
COc1ccc(C#N)cc1C1(C(=O)NS(=O)(=O)c2cccc3ncccc23)CC1 [Example III-99]	5.00 to 5.52

* * *

# targetEntity: F508delCFTR (Homo sapiens, UniProt P13569, DEL508-508)
# Construct: expressed in transfected cells; host or cells: CFBE41o- human lung derived epithelial cells (CFBE41o-F508delCFTR-HRP), doxycycline-inducible
# measurementDescription: Cell Surface Expression-Horse Radish Peroxidase (CSE-HRP) Assay
# Assay type: cell-based
# experimentalParameters: with co-corrector; maximum at any tested concentration
metric: Maximum % activity (with co-corrector)

CCOc1ccc(C(C)(C)COC)cc1C1(C(=O)NS(=O)(=O)c2cccc3nc(C)ccc23)CC1 [II-105]	+++ (≥350)
CC(C)(C)OC(=O)N1CCC(S(=O)(=O)NC(=O)C2(c3ccc(Cl)cc3Cl)CC2)CC1 [Example III-80]	+ (<150)
COc1ccc(C2CC2)cc1C1(C(=O)NS(=O)(=O)c2cccc3nc(C)ccc23)CC1 [II-60]	+++ (≥350)
COc1cc(C2CCC2)cc(OC)c1C1(C(=O)NS(=O)(=O)c2cccc3[nH]ccc23)CC1 [Example I-86]	+++ (≥350)
COc1ccc(C)c(C)c1C1(C(=O)NS(=O)(=O)c2cccc3[nH]ncc23)CC1 [II-77]	+++ (≥350)
O=C(NS(=O)(=O)c1ccccc1)C1(c2cccc(Br)c2)CC1 [Example III-71]	+++ (≥350)
COCC(C)(C)c1ccc(OC)c(C2(C(=O)NS(=O)(=O)c3cccc4ncccc34)CC2)c1 [Example I-110]	+++ (≥350)
Cc1ccc(OC2COC2)c(C2(C(=O)NS(=O)(=O)c3cccc4nc(C)ccc34)CC2)c1 [Example I-106]	+++ (≥350)
COc1ncc(C(F)(F)F)cc1C1(C(=O)NS(=O)(=O)c2cccc3[nH]ncc23)CC1 [Example III-98]	+++ (≥350)
COc1cc(C)ccc1C1(C(=O)NS(=O)(=O)c2cccc3ncccc23)CC1 [II-63]	+++ (≥350)
CCCS(=O)(=O)NC(=O)C1(c2ccc(Cl)cc2Cl)CC1 [Example III-107]	+ (<150)
O=C(NS(=O)(=O)c1cccc2ncccc12)C1(c2cc(C3CCC3)cnc2N2CCCC2)CC1 [Example GI-28]	+++ (≥350)
CO[C@H](C)COc1ccc(C)cc1C1(C(=O)NS(=O)(=O)c2cccc3nc(C)ccc23)CC1 [Example I-116]	+++ (≥350)
COc1ccc(C)c(C2(C(=O)NS(=O)(=O)c3cccc4ncccc34)CCN(C)CC2)c1 [Example III-94]	+ (<150)
COc1ncc(C2CCC2)c(C)c1C1(C(=O)NS(=O)(=O)c2cccc3c2CCCN3)CC1 [II-38]	+++ (≥350)
O=C1CCCN1c1ccc(S(=O)(=O)NC(=O)C2(c3ccc(Cl)cc3Cl)CC2)cc1 [Example III-16]	+ (<150)
COc1ccc(C)c(OC)c1C1(C(=O)NS(=O)(=O)c2cccc3ccc(C)nc23)CC1 [II-39]	+++ (≥350)
Cc1ccc(OC(C)C)c(C2(C(=O)NS(=O)(=O)c3cccc4[nH]ncc34)CC2)c1 [II-75]	+++ (≥350)
COc1ccc(OC)c(C2(C(=O)NS(=O)(=O)c3cccc4ccccc34)CC2)c1 [Example I-28]	+++ (≥350)
CCOc1ccc(C2(OC)CCC2)cc1C1(C(=O)NS(=O)(=O)c2cccc3nc(C)ccc23)CC1 [Example I-105]	+++ (≥350)
COc1ccc(C(C)(C)OC)cc1C1(C(=O)NS(=O)(=O)c2cccc3nc(C)ccc23)CC1 [II-99]	+++ (≥350)
COc1cc(C2CCC2)cc(OC)c1C1(C(=O)NS(=O)(=O)c2cccc3ncccc23)CC1 [Example I-80]	+++ (≥350)
CCOc1ccc(C)cc1C1(C(=O)NS(=O)(=O)c2cccc3[nH]ncc23)CC1 [II-74]	+++ (≥350)
COc1cccc(-c2cnn(C)c2)c1C1(C(=O)NS(=O)(=O)c2cccc3ncccc23)CC1 [Example III-122]	+++ (≥350)
COc1ccc(C)cc1C1(C(=O)NS(=O)(=O)c2cccc3nc(C)ccc23)CC1 [Example I-64]	+++ (≥350)
O=C(NS(=O)(=O)c1cccc2ncccc12)C1(c2ccc(C(F)(F)F)nc2N2CCCC2)CC1 [Example GI-15]	+++ (≥350)
COc1ccc(C2(C(=O)NS(=O)(=O)c3ccccc3)CC2)cc1 [Example III-5]	+ (<150)
COc1cc(C2CCC2)cc(OC)c1C1(C(=O)NS(=O)(=O)c2cccc3nc(N)ccc23)CC1 [II-70]	+++ (≥350)
COc1ccc(C2CCC2)cc1C1(C(=O)NS(=O)(=O)c2cccn3nccc23)CC1 [Example I-61]	+++ (≥350)
Cc1ccc(OC2COC2)c(C2(C(=O)NS(=O)(=O)c3cccc4ncccc34)CC2)c1 [Example I-93]	+++ (≥350)
COc1ccc(C)cc1C1(C(=O)NS(=O)(=O)c2cccc3nc(N)ccc23)CC1 [Example I-79]	+++ (≥350)
